- System: SB.mhdgc-1
- run_description: viability at highest tested concentration (MAXR) relative to DMSO; higher = less cytotoxic
- condition_set: SB.mhdgc-1 (hereditary c.1380delA CDH1 gastric cancer)
Structures can show the parent of a compound that is named as a salt.
Binarize viability at 40%; below is yes, at or above is no.

Task item: Identify whether the molecule C=C1C(=O)OC(CCCCCCCC)C1C(=O)O (stereo unspecified) [C-75] (top concentration 46.0829 µM) records viability below 40%.
Reply: no

Task item: Identify whether the molecule CC(C)C(=O)Nc1ccc([N+](=O)[O-])c(C(F)(F)F)c1 [Flutamide] (top concentration 46.0829 µM) records viability below 40%.
Reply: yes

Task item: Identify whether the molecule NC(=O)c1nnn(Cc2cc(Cl)c(C(=O)c3ccc(Cl)cc3)c(Cl)c2)c1N [Carboxyamidotriazole] (top concentration 46.0829 µM) records viability below 40%.
Reply: no

Task item: Identify whether the molecule CO[C@@]12[C@H](COC(N)=O)C/3=C(N1C[C@@H]4N[C@H]24)/C(=O)/C(=C(N)\C3=O)C [Mitomycin] (top concentration 46.0829 µM) records viability below 40%.
Reply: yes

Task item: Identify whether the molecule Cc1ccccc1C(OCCN(C)C)c1ccccc1 (stereo unspecified) [Orphenadrine hydrochloride] (top concentration 46.0829 µM) records viability below 40%.
Reply: no

Task item: Identify whether the molecule O=c1cc(-c2ccc(O)c(O)c2)oc2cc(O)cc(O)c12 [Luteolin] (top concentration 46.0829 µM) records viability below 40%.
Reply: no
